Data origin: PubChem BioAssay

- protocol: RAM signaling pathway blockade in yeast – S. cerevisiae, Pdr1DBD-CYC8 efflux-inhibited sensitized strain, primary screen (AID 1298);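 also: 0% = DMSO untreated cells without growth and 100% = 10 µM 1-NA-PP1 full growth; higher means more yeast growth rescued from 5-FOA killing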
- condition parameters: S. cerevisiae cbk1-as DSE1-URA3 strain, 5-FOA growth OD615, 2 d; at 50 µM; active compounds read high
Reported RAM network inhibition values follow for various compounds
attribute measured: RAM network inhibition (%)

- compound: "C=CCSC1=C(C#N)C(c2ccc(C(C)C)cc2)CC(=O)N1 (centres undefined)"
  reading unit: "%"
  measured number: 5.66
- compound: "CC1Cc2ccccc2N1C(=O)c1cnc2n(c1=O)CCS2 (centres undefined)"
  reading unit: "%"
  measured number: 2.13
- compound: "O=C(CC1Oc2ccccc2NC1=O)NCCc1ccccc1 (centres undefined)"
  reading unit: "%"
  measured number: 9.58
- compound: "CCOC(=O)c1c(C)n(OCc2ccccc2)c2ccc3c(no[n+]3[O-])c12"
  reading unit: "%"
  measured number: 5.8
- compound: "O=C(Nc1cccc(Cl)c1)N1CCN(Cc2ccccc2)CC1"
  reading unit: "%"
  measured number: 3.81
- compound: "CC1=C(C(N)=O)C(c2ccccn2)n2nc(SCc3ccccc3)nc2N1 (centres undefined)"
  reading unit: "%"
  measured number: 2.59
- compound: "Cc1noc(C(=O)Nc2ccc3c(c2)OCO3)c1Cl"
  reading unit: "%"
  measured number: 5.2
- compound: "Cc1cc(N2CCN(C3CCCCC3)CC2)nc2cccc(O)c12"
  reading unit: "%"
  measured number: 4.45
- compound: "CC(C)c1ccc(C(O)c2cnc(C(C)C)n2C)cc1 (centres undefined)"
  reading unit: "%"
  measured number: 1.77
- compound: "COc1ccc(C(c2sc3nc(C)nn3c2O)N2CCCCC2)cc1 (centres undefined)"
  reading unit: "%"
  measured number: 3.51
- compound: "C=CCSc1nnc(Cc2c(C)[nH]c3ccccc23)o1"
  reading unit: "%"
  measured number: 1.36
- compound: "O=C(c1cnc2n(c1=O)CCS2)N(C1CCCCC1)C1CCCCC1"
  reading unit: "%"
  measured number: 2.61
- compound: "CCC1CCCCN1C(=O)CSc1nnc(-c2ccc(OC)cc2)o1 (centres undefined)"
  reading unit: "%"
  measured number: 1.19
- compound: "CC1Cc2nc(SCC(=O)N3CCCc4ccccc43)n(C)c(=O)c2S1 (centres undefined)"
  reading unit: "%"
  measured number: 6.46
- compound: "CCCn1c(NCc2cc(C)ccc2O)nc2ccccc21"
  reading unit: "%"
  measured number: 0.33
- compound: "CN(C)C(=O)Nc1cnc2ccccc2c1"
  reading unit: "%"
  measured number: 1.97
- compound: "O=C(NC1CC1)c1ccc(CSCc2cccc(F)c2)o1"
  reading unit: "%"
  measured number: 4.29
- compound: "COc1ccc(NS(=O)(=O)c2coc(C(N)=O)c2)cc1Cl"
  reading unit: "%"
  measured number: 1.58
- compound: "CCN1C(=C2C(=O)c3ccccc3C2=O)C=Cc2ccccc21"
  reading unit: "%"
  measured number: -0.72
- compound: "Cn1c(=O)c2c(nc3sccn32)n(C)c1=O"
  reading unit: "%"
  measured number: 2.73
- compound: "CC(=O)OC1c2c(ccc3ccc(=O)oc23)OC(C)(C)C1OC(=O)CC(C)C (centres undefined)"
  reading unit: "%"
  measured number: 10
- compound: "CC1CCC(NC(=O)C2(C)CCC(=O)N2Cc2cccnc2)CC1 (centres undefined)"
  reading unit: "%"
  measured number: 1.87
- compound: "COc1cc(NC(=O)C2CCCN2S(=O)(=O)c2ccc3c(c2)CCC(=O)N3)cc(OC)c1 (centres undefined)"
  reading unit: "%"
  measured number: 1.33
- compound: "CC(C)(NC(=O)N1CCCC1)c1cccc(C(C)(C)NC(=O)N2CCCC2)c1"
  reading unit: "%"
  measured number: 0.88
